assay setup: buffer; pH 7.4; 200.0 µM
measurement kind: solubility kinetic

// query Look up solubility kinetic for this compound: O=C(Nc1cc(=O)[nH]c(=O)[nH]1)c1cccc(C(F)(F)F)c1
// result > 44.9 µg/mL

// query Which solubility kinetic value is on record for CCOC(=O)C1CCN(C(=O)COc2ccc3c(c2)OCO3)CC1 ?
// result > 50.3 µg/mL

// query # get_value(readout='solubility kinetic', item= COc1ccc(C(=O)N=c2sc3ccccc3n2C)cc1 )
// result < 0.3 µg/mL

// query Item under review: O=C(CSCc1c(F)cccc1Cl)NCCc1ccccc1 . Reported solubility kinetic?
// result 40.2 µg/mL

// query Name the reported solubility kinetic value associated with the compound CC(NCC(=O)NCC(=O)Nc1ccc(F)cc1)c1cccc(C(F)(F)F)c1 (centres undefined)
// result > 59.6 µg/mL

// query Which measured solubility kinetic value corresponds to Cn1cc(/C=C(\C#N)C(=O)Nc2ccccc2O)c2ccccc21 ?
// result < 0.2 µg/mL

// query Which solubility kinetic value is on record for CSc1ncccc1C(=O)OCC(=O)NC12CC3CC(CC(C3)C1)C2 ?
// result 21.8 µg/mL

// query Dear colleague, I am looking for the recorded solubility kinetic of the following compound: OCCN(CCO)c1ccc2ccccc2c1
// result > 34.7 µg/mL

// query I would be grateful if you could share the reported solubility kinetic for O=C(CSC1=NCCN1)Nc1ccccc1[N+](=O)[O-] .
// result > 42 µg/mL

// query Request the reported solubility kinetic associated with Cc1cccn2c(=O)c(C=O)c(N3CC(C)OC(C)C3)nc12 (centres undefined)
// result > 45.2 µg/mL

// query Entry COc1ccc(OCCC(=O)OCC(=O)Nc2cccc(S(=O)(=O)N3CCCCC3)c2)cc1 has what solubility kinetic?
// result 30.5 µg/mL

// query Please give the measured solubility kinetic for this compound: Nc1ccc(S(=O)(=O)N2CCCC2)cc1Cl
// result > 39.1 µg/mL

// query Quick check: solubility kinetic of O=c1[nH]c(=S)n(-c2ccccc2F)c(O)c1C=NCCN1CCNCC1 ?
// result 55.3 µg/mL

// query solubility kinetic value for entry CCCCNC(=O)c1cc2cc(OC)ccc2[nH]1
// result 15.4 µg/mL

// query Please report the recorded solubility kinetic for CCC(C)(C)C(=O)Nc1cccc(Cl)c1C .
// result > 36 µg/mL

// query Consider the compound shown here: O=C(Nc1cc(Cl)ccc1N1CCOCC1)c1ccc(=O)[nH]c1 What is its recorded solubility kinetic?
// result 38.1 µg/mL

// query Could you share which solubility kinetic value was measured for Clc1cc(-c2ccccc2)nc(-c2ccccc2)n1 ?
// result < 0.3 µg/mL

// query For CCCCC#Cc1cncc(C(=O)NN)c1 , what is its reported solubility kinetic?
// result > 32.6 µg/mL

// query If you can, please state the reported solubility kinetic value of O=C(OCC(=O)N1CCOCC1)c1ccc2ccccc2c1 .
// result > 44.9 µg/mL

// query Any idea what solubility kinetic was measured for CCC(=O)c1cn(CC(=O)Nc2c(C)cccc2C)c2ccccc12 ?
// result < 0.4 µg/mL

// query Consider the compound CCOC(=O)C1=C(N)Oc2cc(O)ccc2C1c1cccc(Cl)c1 (centres undefined) and give its measured solubility kinetic.
// result < 0.7 µg/mL

// query Which solubility kinetic reading was recorded for the compound COc1ccc(CCNC(=O)C2C3CCC(C3)C2C(=O)O)cc1OC (centres undefined) ?
// result 43.7 µg/mL

// query Which solubility kinetic reading was recorded for the compound CC1CC(O)(CC(O)(c2ccccc2)c2ccccc2)C(C)CN1C (centres undefined) ?
// result > 50.9 µg/mL

// query What measured solubility kinetic goes with C=CCn1c(O)c(C(CC)=Nc2ccc(N(C)C)cc2)c(=O)[nH]c1=O ?
// result 1.5 µg/mL

// query solubility kinetic lookup needed for Cc1cc(OCCn2ccnc2)cc(C)c1Cl , thanks.
// result 30.8 µg/mL

// query What value of measured solubility kinetic is listed for COc1cccc(N2CN(CCc3ccccc3)CNC2=S)c1 ?
// result 9.8 µg/mL

// query # solubility kinetic lookup, item O=C(CN1C(=O)NC2(CCCC2)C1=O)N1CCN(c2ccccc2O)CC1
// result > 55.9 µg/mL

// query Return reported solubility kinetic; argument: Cc1ccc(Cl)c(OCC(=O)Nc2ccccc2C(=O)NC2CC2)c1
// result 5.9 µg/mL

// query I have this compound here, O=C(CCC(=O)Nc1ccccc1Cl)NN=C1CCCC1 , and I need its recorded solubility kinetic.
// result > 46.2 µg/mL

// query // lookup solubility kinetic for CCn1c(NCCCO)nc2c(c1=O)C(C)(CC)Cc1ccccc1-2 (centres undefined)
// result 47 µg/mL

// query Need solubility kinetic of CCCCN(CC)Cc1c(O)ccc2c3c(c(=O)oc12)CCC3 , thanks.
// result 44 µg/mL

// query Item under review: S=C(Nc1ccccc1)Nc1ccc(Br)cc1 . Reported solubility kinetic?
// result 5.6 µg/mL

// query If you can, please state the reported solubility kinetic value of Cn1c(=O)[nH]c2c(Cl)nccc21 .
// result > 27.5 µg/mL

// query For the compound shown here, Cc1ccccc1CC(=O)NCCN1CCOCC1 , give the reported solubility kinetic.
// result > 39.4 µg/mL

// query Item COC(=O)c1cc(COC(=O)CNC(=O)c2ccc(Br)cc2)oc1C has what recorded solubility kinetic?
// result 6.8 µg/mL

// query Query (compound): CCN1C(=O)CSC1=Nc1ccccc1Cl ; field requested: solubility kinetic
// result 27.9 µg/mL

// query Name the recorded solubility kinetic for N#Cc1cccc(NC(=O)CCN2C(=O)C3CCCCC3C2=O)c1 (centres undefined) .
// result > 48.8 µg/mL

// query Dear colleague, I am looking for the recorded solubility kinetic of the following compound: O=C(NCC(=O)N1CC=C(c2ccccc2)CC1)c1ccc(OC(F)F)cc1
// result 8.2 µg/mL

// query Quick one: solubility kinetic of Cc1ccsc1C(=O)OCC(=O)N1CCc2ccccc2C1 ?
// result 34.6 µg/mL

// query Reported solubility kinetic, compound Cn1c(=O)oc2cc(S(=O)(=O)N3CCc4ccccc43)ccc21 : ____
// result 0.5 µg/mL

// query Which measured solubility kinetic value corresponds to CCOc1ccc(-n2cc(-c3ccccc3)c3c(=S)nc[nH]c32)cc1 ?
// result 0.3 µg/mL

// query Which solubility kinetic reading was recorded for the compound Cc1nc(N2CCN(Cc3ccc4c(c3)OCO4)CC2)[nH]c(=O)c1C ?
// result > 51.4 µg/mL

// query Bench note: what solubility kinetic did CCOC(=O)CC1C(=O)NCCN1C(=O)c1cccc(OC)c1 (centres undefined) show?
// result 44.4 µg/mL

// query Request the reported solubility kinetic associated with CCn1c(C)cc(=O)cc1-c1ccc(Cl)cc1
// result > 37.2 µg/mL

// query Entry O=CN1CCN(C(=O)c2ccc(Br)o2)CC1 : reported solubility kinetic = ?
// result > 43.1 µg/mL

// query Fill blank: measured solubility kinetic of the compound CC(C)CN1CCN(Cc2cccc3c2OCO3)CC1CCO (centres undefined) is ____.
// result > 48.1 µg/mL

// query # query: solubility kinetic of entry Cc1cccc(Nc2nc(C)cc(C)c2C#N)c1
// result 0.8 µg/mL

// query Which solubility kinetic is listed for CCc1ccccc1NC(=O)NCc1ccccn1 ?
// result > 38.3 µg/mL

// query Report solubility kinetic for CCNC(=O)C(C)Oc1ccc(Cl)cc1Cl (centres undefined) please.
// result > 39.3 µg/mL
